Target: human 11β-HSD2 (Homo sapiens, UniProt P80365)
Construct: expressed in transfected cells
Assay: Enzyme inhibitory activity assay, lysate of HEK293 cells stably expressing human 11β-HSD2, cortisol by competitive ELISA
Format: biochemical
Settings: Table 1; cell lysate, 100 nmol/L cortisol, NAD+, 37° C. 1 hour; read-out: in vitro assay (IC50 uM) h HSD2
Measured IC50, listed per entry for reference.

>>> experimental_result("CC(C)c1ccc(C2N(C3C4CC5CC(C4)CC3C5)C(=O)C2(C)C)cc1 (stereo not shown)")
"14 µM"
>>> experimental_result("CC1(C)C(=O)N(C2C3CC4CC(C3)CC2C4)C1c1ccc(Cl)c(Cl)c1 (stereo not shown)")
"> 30 µM"
>>> experimental_result("CC1(C)C(=O)N(C2C3CC4CC(C3)CC2C4)C1c1cc(F)cc(F)c1F (stereo not shown)")
"> 30 µM"

Next, consider the following compound.
Inquiry: Name the recorded IC50 of the item CC1(C)C(=O)N(C2C3CC4CC(C3)CC2C4)C1c1ccccc1C(F)(F)F (stereo not shown) in your answer.
Reply text: 3 to 30 µM

---

Molecular target: human 11β-HSD1 (Homo sapiens)
Construct: expressed in transfected cells
Sequence (P28845 whole entry): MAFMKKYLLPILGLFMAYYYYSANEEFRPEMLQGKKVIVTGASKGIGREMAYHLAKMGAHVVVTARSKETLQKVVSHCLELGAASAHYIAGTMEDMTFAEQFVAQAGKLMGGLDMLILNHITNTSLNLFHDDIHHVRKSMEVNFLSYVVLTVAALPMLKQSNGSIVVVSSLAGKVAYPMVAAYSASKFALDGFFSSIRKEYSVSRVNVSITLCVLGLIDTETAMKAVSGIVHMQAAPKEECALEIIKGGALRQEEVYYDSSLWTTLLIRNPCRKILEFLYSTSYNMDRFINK
Assay: Enzyme inhibitory activity assay, lysate of HEK293 cells stably expressing human 11β-HSD1, cortisol by competitive ELISA
Format: biochemical
Settings: Table 1; cell lysate, 100 nmol/L cortisone, NADPH, 37° C. 1 hour; read-out: in vitro assay (IC50 uM) h HSD1
Experimental: 1. Human 11β-HSD1-, Human 11β-HSD2- and Mouse 11β-HSD1-Gene Clonings and Establishment of Stably Expressing Cells Human 11β-HSD1- and human 11β-HSD2-expressing vectors were transfected into human kidney-derived cell line, HEK293 cells, using a transfection reagent, jet PEI (Funakoshi). […] An enzymatic reaction was conducted using a polystyrene 96-well plate. […] Cortisol that was present in the reaction solution was determined by a competitive ELISA shown below. […]
assay endpoint: IC50 (µM)

1: CC1(C)C(=O)N(C2C3CC4CC(C3)CC2C4)C1c1cccc(F)c1F (stereo not drawn)
2: COC(=O)[C@]12CC3CC(C1)[C@@H](N1C(=O)C(C)(C)C1c1ccnc4ccccc14)C(C3)C2 (stereo partly drawn)
3: COc1ccccc1C1N(C2C3CC4CC(C3)CC2C4)C(=O)C1(C)C (stereo not drawn)
Inquiry: Reorder the list: decreasing IC50. Your reply should list the labels following the order given in the request.
Reply text: 2, 1, 3
(2: 0.1 µM, 1: 0.011 µM, 3: 0.0067 µM)

---

Biological target: human 11β-HSD2 (Homo sapiens, UniProt P80365)
Construct: expressed in transfected cells
Sequence (P80365 1-405): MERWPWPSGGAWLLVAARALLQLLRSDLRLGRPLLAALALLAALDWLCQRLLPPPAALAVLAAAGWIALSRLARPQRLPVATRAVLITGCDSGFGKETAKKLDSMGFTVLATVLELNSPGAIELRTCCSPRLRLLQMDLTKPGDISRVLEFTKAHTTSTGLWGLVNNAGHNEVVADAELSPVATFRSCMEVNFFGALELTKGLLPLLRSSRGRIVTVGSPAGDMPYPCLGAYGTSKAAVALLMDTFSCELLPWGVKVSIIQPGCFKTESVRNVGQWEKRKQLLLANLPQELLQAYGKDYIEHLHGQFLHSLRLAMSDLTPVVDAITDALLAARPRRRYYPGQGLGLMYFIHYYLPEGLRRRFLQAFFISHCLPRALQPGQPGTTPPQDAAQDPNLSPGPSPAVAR
Assay: Enzyme inhibitory activity assay, lysate of HEK293 cells stably expressing human 11β-HSD2, cortisol by competitive ELISA
Format: biochemical
Conditions: Table 1; cell lysate, 100 nmol/L cortisol, NAD+, 37° C. 1 hour; read-out: in vitro assay (IC50 uM) h HSD2
assay endpoint: IC50

Use these answered entries as a reference point.
>>> experimental_result("CC1(C)C(=O)N(C2C3CC4CC(C3)CC2C4)C1c1cccc(F)c1F (stereo not drawn)")
"> 30 µM"
>>> experimental_result("COc1ccc(C2N(C3C4CC5CC(C4)CC3C5)C(=O)C2(C)C)cc1 (stereo not drawn)")
"> 30 µM"

Next, consider the following compound.
Inquiry: Name the recorded IC50 of the item COc1ccc(C2N(C3C4CC5CC(C4)CC3C5)C(=O)C2(C)C)c(F)c1 (stereo not drawn) in your answer.
Reply text: > 30 µM
